- systemTested: Recombinant human HSD17B13 enzyme (Homo sapiens (Human))
- Sequence (Q7Z5P4 20-300): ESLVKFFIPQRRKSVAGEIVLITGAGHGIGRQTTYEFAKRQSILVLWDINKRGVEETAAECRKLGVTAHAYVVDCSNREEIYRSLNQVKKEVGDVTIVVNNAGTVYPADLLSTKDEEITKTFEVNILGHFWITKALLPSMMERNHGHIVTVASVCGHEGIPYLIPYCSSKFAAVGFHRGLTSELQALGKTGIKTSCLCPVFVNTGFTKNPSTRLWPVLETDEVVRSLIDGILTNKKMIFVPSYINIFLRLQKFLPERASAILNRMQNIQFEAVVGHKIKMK
- assayProtocol: HSD17b13 NAD(P)H-Glo Biochemical Assay
- conditionContext: 50 uM estradiol, 1 mM NAD+; read-out: HSD17β13 IC50
pIC50: −log10 of the molar value.
Item-by-item account of pIC50

Query: Value lookup for pIC50; key = "Cc1ccccc1-c1ccc2c(cnn2-c2ccc(F)c(O)c2)c1"
Response: 6.00 to 7.00

Query: Value lookup for pIC50; key = "Cc1c(N2CCN(S(C)(=O)=O)CC2)ccc2c1cnn2-c1cc(O)c(F)c(F)c1"
Response: 4.52 to 6.00

Query: Value lookup for pIC50; key = "Oc1cncc(-c2ccc3c(cnn3-c3cc(O)c(F)c(F)c3)c2)c1"
Response: 6.00 to 7.00

Query: Value lookup for pIC50; key = "N#Cc1ccccc1-c1ccc2c(cnn2-c2ccc(F)c(O)c2)c1"
Response: 6.00 to 7.00

New cases:
Query: Value lookup for pIC50; key = "Oc1ccc(-c2ccc3c(cnn3-c3ccc(C(F)(F)F)c(O)c3)c2)cc1Cl"
Response: 4.52 to 6.00

Query: Value lookup for pIC50; key = "Cc1nn(-c2nc(C(F)(F)F)c(F)c(O)c2F)c2cnc(N3CCOCC34CC4)cc12"
Response: 4.52 to 6.00

Query: Value lookup for pIC50; key = "CC1(C)CN(c2ccc3c(cnn3-c3cc(O)c(F)c(F)c3)c2)CCN1S(C)(=O)=O"
Response: 6.00 to 7.00

Query: Value lookup for pIC50; key = Oc1cc(-n2ncc3cc(-c4ccc(O)c(Cl)c4)ccc32)ccc1F [Compound 5]
Response: 6.00 to 7.00
